- TARGET_OR_SYSTEM: UniProt:P28223
- Sequence (P28223 whole entry): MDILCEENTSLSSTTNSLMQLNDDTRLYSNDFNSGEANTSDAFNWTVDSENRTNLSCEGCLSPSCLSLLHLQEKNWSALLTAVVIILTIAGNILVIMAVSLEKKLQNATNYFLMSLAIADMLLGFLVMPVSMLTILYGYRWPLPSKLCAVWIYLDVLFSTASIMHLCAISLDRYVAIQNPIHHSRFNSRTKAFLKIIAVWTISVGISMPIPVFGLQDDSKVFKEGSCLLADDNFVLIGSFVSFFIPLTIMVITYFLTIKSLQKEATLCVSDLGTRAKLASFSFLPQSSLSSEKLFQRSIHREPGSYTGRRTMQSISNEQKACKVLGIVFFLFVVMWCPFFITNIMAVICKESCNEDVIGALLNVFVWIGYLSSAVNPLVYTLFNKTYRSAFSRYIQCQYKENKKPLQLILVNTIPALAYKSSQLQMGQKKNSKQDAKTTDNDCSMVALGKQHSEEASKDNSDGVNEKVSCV
- PROCEDURE_TEXT: Affinity on 5-HT2A receptor, competition with [3H]-Ketanserin
- Assay type: binding
PROPERTY_MEASURED: 5-HT2A receptor inhibition ratio (%)

| MOLECULE | 5-HT2A receptor inhibition ratio (%) |
| --- | --- |
| COc1cc2c(cc1O)[C@@H]1Cc3c(OC)ccc(OC)c3CN1CC2 [DC037030] | 39.99 |
| COc1cc2c(c(OC)c1)CN1CCc3cc(OC)c(OC)cc3[C@@H]1C2 [DC037075] | 54.04 |
| COc1ccc(OC)c2c1C[C@H]1c3cc4c(cc3CCN1C2)OCCO4 [DC037032] | 37.75 |
| COc1cc(OC)c2c(c1CO)C[C@H]1c3cc4c(cc3CCN1C2)OCO4 [DC037077] | 45.63 |

Data credit: patent US9359372B2
